# Test system: mPer2Luc MEF
# assay.method.text: PER2::LUC luminescence relative to vehicle control (fold of vehicle); higher = higher PER2::LUC reporter signal
# particulars: time after treatment: 30-hour; concentration: 0.37μM
reported.property: PER2::LUC luminescence

structure.string | reported.property | recorded.result
COc1cc(OC)cc(C(=O)Nc2ccc(Cl)c(-c3nc4ccc(N(C)C)cc4[nH]3)c2)c1 | PER2::LUC luminescence | 1.04
CC[C@@H]1C(=O)N(C)c2cnc(Nc3ccc(C(=O)N[C@H]4CC[C@H](N5CCN(CC6CC6)CC5)CC4)cc3OC)nc2N1C(C)C | PER2::LUC luminescence | 0.574
Cc1ccc(-n2nc(C(C)(C)C)cc2NC(=O)Nc2ccc(OCCN3CCOCC3)c3ccccc23)cc1 | PER2::LUC luminescence | 0.941
C[C@H](NC(=O)/C(C#N)=C/c1cccc(Br)n1)c1ccccc1 | PER2::LUC luminescence | 1.02
Cc1ccc(NC(=O)Nc2cc(C(F)(F)F)ccc2F)cc1Nc1ccc2c(c1)NC(=O)/C2=C\c1ccc[nH]1 | PER2::LUC luminescence | 1.05
OCc1ccc(-c2ccc(-c3ccc(CO)s3)o2)s1 | PER2::LUC luminescence | 1.63
CCc1cncnc1N1CCN(Cc2nc3ccc(C(F)(F)F)cc3[nH]2)CC1 | PER2::LUC luminescence | 1.03
CCc1cc2c(cc1N1CCC(N3CCOCC3)CC1)C(C)(C)c1[nH]c3cc(C#N)ccc3c1C2=O | PER2::LUC luminescence | 0.859

###

Reported PER2::LUC luminescence values follow for various compounds
# Test system: mPer2Luc MEF
# assay.method.text: PER2::LUC luminescence relative to vehicle control (fold of vehicle); higher = higher PER2::LUC reporter signal
# particulars: time after treatment: 30-hour; concentration: 3.33μM
Structures can show the parent of a compound that is named as a salt.
reported.property: PER2::LUC luminescence

compound | reported.property | recorded.result
Cc1ccc(-n2nc(C(C)(C)C)cc2NC(=O)Nc2ccc(OCCN3CCOCC3)c3ccccc23)cc1 [BIRB 796 (Doramapimod)] | PER2::LUC luminescence | 0.924
CCc1cc2c(cc1N1CCC(N3CCOCC3)CC1)C(C)(C)c1[nH]c3cc(C#N)ccc3c1C2=O | PER2::LUC luminescence | 0.859
CCOc1cc(C(=O)N2CCC(N3CCN(C)CC3)CC2)ccc1Nc1ncc2c(n1)N(C1CCCC1)c1ccccc1C(=O)N2C [XMD17-109] | PER2::LUC luminescence | 0.285
NCC(=O)N1C[C@H](NC(=O)c2ccccc2)C[C@H]1C(=O)O [GAP-134 (Hydrochloride)] | PER2::LUC luminescence | 1.06

###

# Tested on: mPer2Luc MEF
# assay.method.text: PER2::LUC luminescence relative to vehicle control (fold of vehicle); higher = higher PER2::LUC reporter signal
# particulars: time after treatment: 30-hour; concentration: 0.04μM
Each entry gets Not satisfied if its PER2::LUC luminescence stays under 1, and Satisfied if its PER2::LUC luminescence is 1 or above.

molecule | class
CCN1CCN(Cc2ccc(NC(=O)Nc3ccc(Oc4cc(NC)ncn4)cc3)cc2C(F)(F)F)CC1 [AST 487] | Not satisfied
O=C(c1ccc(F)c(F)c1Nc1ccc(I)cc1F)N1CC(O)([C@@H]2CCCCN2)C1 [Cobimetinib] | Not satisfied
Cc1ccc2nc(NCCN)c3ncc(C)n3c2c1 | Not satisfied
O=C(Cc1ccc(-c2ccc(OCCN3CCOCC3)cc2)cn1)NCc1ccccc1 [KX2-391] | Not satisfied
CCOc1cc(C(=O)N2CCC(N3CCN(C)CC3)CC2)ccc1Nc1ncc2c(n1)N(C1CCCC1)c1ccccc1C(=O)N2C [XMD17-109] | Not satisfied
O=c1cc(N2CCOCC2)oc2c(-c3cccc4c3sc3ccccc34)cccc12 | Not satisfied
Cc1cc2sc(NC(=O)Cc3ccccc3)nc2cc1Cl [LH-846] | Satisfied
CC(C)c1onc(-c2c(Cl)cccc2Cl)c1COc1ccc(/C=C/c2cccc(C(=O)O)c2)c(Cl)c1 [GW4064] | Satisfied
NS(=O)(=O)c1ccc(NC(=O)Nc2ccc(F)cc2)cc1 [U-104] | Satisfied
COc1ccc(CCN2CCC(Nc3nc4ccccc4n3Cc3ccc(F)cc3)CC2)cc1 [Astemizole] | Not satisfied
COc1ccc(C[C@H]2NC[C@H](O)[C@H]2OC(C)=O)cc1 [Anisomycin] | Not satisfied
CN1CCN(c2nc3ccccc3nc2Cl)CC1 | Satisfied
COc1cc(-c2nc3ccccc3s2)ccc1O [YL-109] | Satisfied
Nc1nccc(Oc2ccc(NC(=O)c3c[nH]cc(-c4ccc(F)cc4)c3=O)cc2F)c1Cl | Satisfied
O=c1sn(-c2cccc3ccccc23)c(=O)n1Cc1ccccc1 [Tideglusib] | Not satisfied
Cc1ccc(NC(=O)Nc2cc(C(F)(F)F)ccc2F)cc1Nc1ccc2c(c1)NC(=O)/C2=C\c1ccc[nH]1 [GNF-5837] | Satisfied
O=C(Nc1ccc(OC(F)(F)F)cc1)c1sccc1NCc1ccnc2ccccc12 [OSI-930] | Satisfied
CCOC(=O)N1c2ccc(C(F)(F)F)cc2[C@@H](N(Cc2cc(C(F)(F)F)cc(C(F)(F)F)c2)C(=O)OC)C[C@H]1CC | Not satisfied
O=C(O)c1ccc2c(c1)nc(Nc1cccc(Cl)c1)c1ccncc12 [CX-4945] | Satisfied
CN(C)C/C=C/C(=O)Nc1cc2c(Nc3ccc(F)c(Cl)c3)ncnc2cc1O[C@H]1CCOC1 [BIBW2992 DiMaleate] | Not satisfied
O=C(Nc1cccc(Cl)c1)c1ccccn1 | Satisfied
COc1ccccc1-c1cc(Nc2cccc(CS(N)(=O)=O)c2)ncn1 | Not satisfied
Cc1cccc(/C=N/Nc2cc(N3CCOCC3)n3nc(-c4ccncc4)cc3n2)c1 [APY0201] | Not satisfied
Cc1ccc(NC(=O)c2cccc(N(C)C)c2)cc1NC(=O)c1ccc(O)cc1 | Not satisfied
COc1ccc(-c2nc3cc(F)ccc3s2)cc1OC | Satisfied
CC(C)(C)c1ccc(-c2nc3ccccc3[nH]2)cc1 [ZLN005] | Not satisfied
CN1CCN(C2CCC(n3cc(-c4ccc(Oc5ccccc5)cc4)c4c(N)ncnc43)CC2)CC1 (configuration not stated) | Not satisfied
Cn1cc(/C=C/C(=O)c2cccc(F)c2)cc1/C=C/C(=O)NO [MC1568] | Not satisfied
